The values you see were collected from patent US20140112930A1.

Molecular target: T1, Dimeric Mouse Ang-2FD conjugated to human IgG1 (mouse (Mus musculus); human)
T1 construct: also called Mouse Ang-2FD-hFc
Experiment: competition ELISA, 16.67 nM Ab, coated hTie-2-mFc
Answer each item with its documented Percent Blocking of Ang-2FD Binding to Tie-2.
Numbers only, in %.

Sample records with Percent Blocking of Ang-2FD Binding to Tie-2:
{"columns": ["binder", "scale_unit", "val"],
 "data": [
  ["H2M749N (antibody, V domains shown, also called H1M749N; H1M749) VH: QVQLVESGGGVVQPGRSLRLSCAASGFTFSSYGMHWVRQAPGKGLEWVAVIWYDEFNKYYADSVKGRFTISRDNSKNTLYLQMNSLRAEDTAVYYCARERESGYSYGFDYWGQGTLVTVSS VL: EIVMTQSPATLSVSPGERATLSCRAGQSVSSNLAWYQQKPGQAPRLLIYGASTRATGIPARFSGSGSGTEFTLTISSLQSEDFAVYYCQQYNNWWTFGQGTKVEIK", "%", 97.3],
  ["H2M750N (antibody, V domains shown) VH: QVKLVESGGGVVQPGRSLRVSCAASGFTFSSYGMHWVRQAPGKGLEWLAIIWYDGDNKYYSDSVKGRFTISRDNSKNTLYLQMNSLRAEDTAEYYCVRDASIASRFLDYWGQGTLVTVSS VL: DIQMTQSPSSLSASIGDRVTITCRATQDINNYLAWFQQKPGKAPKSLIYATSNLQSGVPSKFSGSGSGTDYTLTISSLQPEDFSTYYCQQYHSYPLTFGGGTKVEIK", "%", 53.7],
  ["H2M744N (antibody, V domains shown) VH: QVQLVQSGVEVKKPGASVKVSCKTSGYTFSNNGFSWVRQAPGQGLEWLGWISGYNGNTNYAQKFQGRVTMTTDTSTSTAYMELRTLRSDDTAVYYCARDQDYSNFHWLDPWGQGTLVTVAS VL: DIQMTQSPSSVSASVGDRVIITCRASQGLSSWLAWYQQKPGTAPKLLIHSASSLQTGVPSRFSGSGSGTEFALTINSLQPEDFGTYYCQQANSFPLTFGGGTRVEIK", "%", 98.4],
  ["H2M743N (antibody, V domains shown) VH: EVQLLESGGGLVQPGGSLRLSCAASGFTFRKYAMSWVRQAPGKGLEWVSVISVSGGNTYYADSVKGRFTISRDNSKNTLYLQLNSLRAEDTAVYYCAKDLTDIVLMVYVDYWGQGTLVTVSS VL: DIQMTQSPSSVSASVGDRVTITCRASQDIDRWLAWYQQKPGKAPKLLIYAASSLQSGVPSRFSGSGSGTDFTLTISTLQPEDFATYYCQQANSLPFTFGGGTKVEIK", "%", 98.4]
]}

Next binder, please.
input: Reported Percent Blocking of Ang-2FD Binding to Tie-2 for H1M732N (antibody, V domains shown) VH: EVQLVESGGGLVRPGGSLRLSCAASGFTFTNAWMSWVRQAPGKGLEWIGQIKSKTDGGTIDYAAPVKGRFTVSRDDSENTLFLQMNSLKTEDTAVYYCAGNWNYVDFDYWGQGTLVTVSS VL: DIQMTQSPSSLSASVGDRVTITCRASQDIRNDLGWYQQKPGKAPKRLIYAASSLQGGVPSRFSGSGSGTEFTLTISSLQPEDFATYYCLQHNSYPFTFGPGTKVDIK : what is it?
output: 90.9
